# Tested on: MS2 coat protein
# procedure text: apparent KD of MS2 coat protein; designed switch direction (-1 OFF switch, 1 ON switch): 1; higher = weaker reporter binding
# cond: input ligand: microRNA oligo, concentration not stated
Each entry below carries its reported apparent KD of MS2 coat protein.
Please state the figure in nM; there is no need to write the unit.

// below: answered sequences
INSERT INTO measurements (seq, tested_on, obs_value) VALUES
  ('UGUUGUAUUACAGGAUAUCUAUUAUUGUUAUUUAGAGAAGGGUAUUCACAUGAGGAUCACCCAUGUAUAUACGAGGAAGUUGUG [JMF''s solution 18] (Eterna round: R96, puzzle: Same State NG 1)', 'MS2 coat protein', 39.9),
  ('GUAAUCGUUAUAGGAUAUCAUGAGGAUUACCCAUGAGAAGGGUGAUUCCGAUCCAUAUUCAGAAAAUGAAUGUGGAUAGAUUGC [Omei NG1 A v1] (Eterna round: R96, puzzle: Same State NG 1)', 'MS2 coat protein', 117),
  ('GCUCGAUGAGCUGUCUACAUGAGGAUCACCCAUGUAGAUGGGCAGGAUAUUUACGUGCUUUGUGUAGAGAAGGGCCCAUCGAGC [SameState NG3 #77] (Eterna round: R96, puzzle: Same State NG 3)', 'MS2 coat protein', 144),
  ('GUAGCAUACCGAGGAUAUUCAUAUUACAUGAGGAUCACCCAUGUUAUAGGCCGAUUACGGCCUUGGGAGAAGGCGGAAUGCUAC [Xeonanis - 20 Mod24] (Eterna round: R96, puzzle: Same State NG 2)', 'MS2 coat protein', 38.1),
  ('AUUGCUAUCACAGGAUAUCAUGCGAAAAUUGCGUGAGAAGGGUGGACUCUGUCAUUCACGGAGGACAUGAGGAUCACCCAUGUC [SameState NG1 #81] (Eterna round: R96, puzzle: Same State NG 1)', 'MS2 coat protein', 15.5),
  ('GGGAGAGACGGAGGAUAUGGAGGGAGAUAGAGACUAGAAGGUUGGACAUGAGAAUCGAACAUGAGGAUCACCCAUGUUGGGAGG [iteri-2] (Eterna round: R96, puzzle: Same State NG 1)', 'MS2 coat protein', 33.7);

Query :: # lookup: apparent KD of MS2 coat protein of GACGAGGUGGGAGGAUAUAGCCCGUGGACUGUACCCGAACAUGAGGAUCACCCAUGUCGAGAAACCUAGAAGGCCUACAACGUA [Eternabot solution 11] (Eterna round: R96, puzzle: Same State NG 2)
Result :: 10.8

Query :: Try AGAGGAGGAGCAGGAUAUGCGAAGAAGAACGAGGUAGAAGGGCUCAUGCGAUGACAUGAGGAUCACCCAUGUACCGCGCGAGGA [AK SSNG1-V2-8.2] (Eterna round: R96, puzzle: Same State NG 1) next.
Result :: 209

Query :: For UUAAUAAUGUAAGGAUAUACAUGAGGAUUUCUCGUAGAAGGUACAGGACAUGAGGAUCACCCAUGUAUCGCUCGAAAGAGCGUA [Mat - Same State NG 1 - JL mod - D25] (Eterna round: R96, puzzle: Same State NG 1) then?
Result :: 217
